Assay: Toxicity liver stage against HepG2, at 10uM
Format: cell-based
Set-up: test concentration 10 uM, cell line HepG2-A16-CD81EGFP
Details: human, HepG2-A16-CD81EGFP cells; read-out: INHIBITION
Items are presented alongside their recorded cytotoxicity at 10 µM.
Report the figure in % without appending any unit label.

Sample answers from the record:
CC(=O)N1CCC2(CC1)C(=O)N(CC1CCN(C)CC1)c1ccccc12 = 1.73
Cn1cccc1C(=O)N1CCC2(CCCN2c2ncccn2)CC1 = 6.07
CS(=O)(=O)Cc1ccc(OCc2ccc(F)cc2)cc1 = 22.9
CC(=O)N1CCC(Cc2cnc(C(=O)N3CCCC3)cn2)C1 (configuration not stated) = -23.6
Cc1cccc(CNC(=O)Nc2ccc3c(c2)CCCC(=O)N3)c1 = 2.33
Cc1cc(C)c2c(NCCC3(O)CCCC3)ncnc2n1 = -4.44
CC1(C)CC(n2cc3nc(N4CCCC4)[nH]cc-3c2=O)CC(C)(C)N1 = 9.46
Cc1cc(NC(=O)CN2CCC(N(C)Cc3ncc(C)o3)C2)n(C)n1 (configuration not stated) = -6.49

# input Returns the measured cytotoxicity at 10 µM for the input compound. Input: Cc1nn(C)c2nc(N3CCNC(=O)C3Cc3ccccc3)sc12 (configuration not stated)
# output -2.32

# input Returns the measured cytotoxicity at 10 µM for the input compound. Input: "COc1ccc(S(=O)(=O)NC2(CC(N)=O)CCC2)cc1"
# output 11.7

# input Returns the measured cytotoxicity at 10 µM for the input compound. Input: "Cc1ccc(NC2CCN(C(=O)c3cc[nH]n3)CC2)nn1"
# output -15.2

# input Returns the measured cytotoxicity at 10 µM for the input compound. Input: "COCCCNC(=O)Nc1cccc(Cl)c1-n1cccn1"
# output 1.13

# input Returns the measured cytotoxicity at 10 µM for the input compound. Input: "Cn1cncc1CN1CCC2(CC1)COCCN(S(C)(=O)=O)C2"
# output 4.73

# input Returns the measured cytotoxicity at 10 µM for the input compound. Input: CC(Cn1cccn1)NC(=O)N1CCC(NS(C)(=O)=O)CC1 (configuration not stated)
# output -0.508

# input Returns the measured cytotoxicity at 10 µM for the input compound. Input: NC(=O)N1CCCC(C(=O)Nc2cccc(Cl)c2)C1 (configuration not stated)
# output 8.16

====

Assay: Toxicity liver stage against HepG2, at 10uM
Type: cell-based
Design: test concentration 10 uM, cell line HepG2-A16-CD81EGFP
Conditions: human, HepG2-A16-CD81EGFP cells; read-out: INHIBITION
REPORTED_ENDPOINT: cytotoxicity at 10 µM (%)
Report the figure in % without appending any unit label.

Sample answers from the record:
O=C(Nc1ccncc1)N(CCO)Cc1ccsc1 = -3.98
CCOC(=O)c1nnc2ccccc2c1N1CCN(C(C)C)CC1 = -1.54
O=C(c1cccnc1)N1CCOC(Cc2ccccc2Cl)C1 (stereo not drawn) = 2.12
CN1C(=O)CCC12CCCN(C(=O)c1ccoc1)C2 (stereo not drawn) = 2.65
Cc1ccc(N2CCC3(CC2)CC(OCC(C)C)C3)nn1 = -121

Kindly review the next molecule as well.
# input Returns the measured cytotoxicity at 10 µM for the input molecule. Input: "CO[C@@H]1CC[C@@H](N(C)C(=O)COc2ccc(F)cc2)[C@H]1O"
# output 8.47

====

Assay: Toxicity liver stage against HepG2, at 10uM
Assay type: cell-based
Design: test concentration 10 uM, cell line HepG2-A16-CD81EGFP
Settings: human, HepG2-A16-CD81EGFP cells; read-out: INHIBITION
REPORTED_ENDPOINT: cytotoxicity at 10 µM (%)
Report the figure in % without appending any unit label.

Sample answers from the record:
COc1ccc(C(O)CN2CC(n3cc(C)cn3)C2)cc1 (centres undefined) = 4.52
Cc1cnn(CCNCc2c(C)nn(-c3ccccc3)c2C)c1 = -14.1
O=C(CN1CCOc2ccc(Cl)cc21)NCc1ncc[nH]1 = -0.307

# input Returns the measured cytotoxicity at 10 µM for the input molecule. Input: CCc1cc(C(=O)N2CCC3(CCCN(CC4CC4)C3=O)C2)cs1 (centres undefined)
# output -164

# input Returns the measured cytotoxicity at 10 µM for the input molecule. Input: "CCCN(C(=O)CS(=O)(=O)c1ccccc1)c1cccc(C)c1"
# output 2.08

# input Returns the measured cytotoxicity at 10 µM for the input molecule. Input: "CS(=O)(=O)c1cccc(S(=O)(=O)NCCCN2CCNC(=O)C2)c1"
# output -5.87

# input Returns the measured cytotoxicity at 10 µM for the input molecule. Input: Oc1cccc(CNCCC2CCCO2)c1 (centres undefined)
# output 4.08

# input Returns the measured cytotoxicity at 10 µM for the input molecule. Input: "Cc1nn(C)c(C)c1C(=O)NCc1ccnc(OCC(F)(F)F)c1"
# output -10.7

# input Returns the measured cytotoxicity at 10 µM for the input molecule. Input: "CN1CCN2C(=O)N(C3CCOCC3)C[C@H]2C1"
# output 0.523

# input Returns the measured cytotoxicity at 10 µM for the input molecule. Input: O=C1CC2(CCSC2)C(=O)N1Cc1coc(-c2ccccc2)n1 (centres undefined)
# output 5.57

# input Returns the measured cytotoxicity at 10 µM for the input molecule. Input: "O=C(NCC1CC1)c1cc2c(s1)CCN2c1ncccn1"
# output -101

# input Returns the measured cytotoxicity at 10 µM for the input molecule. Input: "CN(C(=O)CSc1ncc[nH]1)C1CC1"
# output 7.97

# input Returns the measured cytotoxicity at 10 µM for the input molecule. Input: "O=C(c1cc(F)cc(F)c1)N1C[C@H]2CNC[C@H]2C1"
# output 2.91

# input Returns the measured cytotoxicity at 10 µM for the input molecule. Input: CC1CN(C)CCN1C(=O)c1cccn1Cc1ccncc1 (centres undefined)
# output -5.53

====

Experiment: Toxicity liver stage against HepG2, at 10uM
Type: cell-based
Set-up: test concentration 10 uM, cell line HepG2-A16-CD81EGFP
Conditions: human, HepG2-A16-CD81EGFP cells; read-out: INHIBITION
REPORTED_ENDPOINT: cytotoxicity at 10 µM (%)
Report the figure in % without appending any unit label.

CC(C)(C)c1cc(NC(=O)CN(Cc2ccco2)Cc2cccs2)on1 = 11.2
Cc1cc(C)n(C2CCN(S(=O)(=O)N3CCC(C)CC3)CC2)n1 = 6.36

# input Returns the measured cytotoxicity at 10 µM for the input compound. Input: Cc1ncc(C(=O)N2CCCC2c2c(C)nn(C)c2C)s1 (stereo not drawn)
# output 1.51

# input Returns the measured cytotoxicity at 10 µM for the input compound. Input: "Cn1ccnc1N1CCN(C(=O)Cc2ccc(F)cc2)CC1"
# output 4.73

====

Experiment: Toxicity liver stage against HepG2, at 10uM
Type: cell-based
Parameters: test concentration 10 uM, cell line HepG2-A16-CD81EGFP
Conditions: human, HepG2-A16-CD81EGFP cells; read-out: INHIBITION
Items are presented alongside their recorded cytotoxicity at 10 µM.
Report the figure in % without appending any unit label.

Sample answers from the record:
CC1CCN(CCNC(=O)C(C)n2cncn2)CC1 (configuration not stated) = -9.12
Cn1ccnc1CN1CCN(CCOc2ccccc2C#N)CC1 = -14.9
CCCNC(=O)C1CCN(Cc2csc(C(C)(C)C)n2)CC1 = -9.11
Cc1nc2c(c(NCCCN3CCOCC3)n1)CCN(C)C2 = 8.12
CC(C)C(=O)N1CCC(NC2CCSCC2)C1 (configuration not stated) = -3.54
Cc1nc(CNCC2CCCN2c2cccnn2)cs1 (configuration not stated) = -6.26

# input Returns the measured cytotoxicity at 10 µM for the input compound. Input: OC1CCCN(CCNc2ncc(Cl)cc2F)C1 (configuration not stated)
# output 8.81

# input Returns the measured cytotoxicity at 10 µM for the input compound. Input: "Cn1c(CN2CCN(c3cccnc3)CC2)cc2ccccc21"
# output 5.33

# input Returns the measured cytotoxicity at 10 µM for the input compound. Input: "c1cc(CNCc2cccc3c2OCCCO3)cc(Cn2cncn2)c1"
# output 8.1

# input Returns the measured cytotoxicity at 10 µM for the input compound. Input: O=C1CC(c2ccccc2)C2(CCN(Cc3ccccn3)CC2)N1 (configuration not stated)
# output 3.91

# input Returns the measured cytotoxicity at 10 µM for the input compound. Input: "N[C@H]1CN(S(=O)(=O)N2CCCC2)C[C@@H]1c1ccccc1"
# output 6.86

# input Returns the measured cytotoxicity at 10 µM for the input compound. Input: "COc1ccc(-n2c(CCC(=O)O)nc3ccccc32)cc1CO"
# output -0.334

# input Returns the measured cytotoxicity at 10 µM for the input compound. Input: "CC(=O)N1CCC2(CC1)CN(C(=O)[C@@H]1CSCN1)c1ccc(Cl)cc12"
# output -1.91

# input Returns the measured cytotoxicity at 10 µM for the input compound. Input: Cc1noc2ncc(C(=O)N3CCCC(n4cccn4)C3)cc12 (configuration not stated)
# output -1.39

# input Returns the measured cytotoxicity at 10 µM for the input compound. Input: CC(NC(=O)NCc1cccnc1N(C)C)c1cccs1 (configuration not stated)
# output 1.76

# input Returns the measured cytotoxicity at 10 µM for the input compound. Input: Cc1nccc(C(=O)NC(COCC(C)C)c2ccco2)n1 (configuration not stated)
# output -10.7

# input Returns the measured cytotoxicity at 10 µM for the input compound. Input: "CN(Cc1ccc(F)cc1)[C@@H]1CN(S(=O)(=O)N(C)C)C[C@H]1O"
# output -1.34
